Hi there, I'd appreciate the recorded growth inhibition for every entry that follows.
- Assay overview: NCI Yeast Anticancer Drug Screen. Data for the sgs1 mgt1 strain (AID 161);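 also: 0% = growth of cultures given vehicle only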
- Cond: S. cerevisiae sgs1 mgt1 strain, at 50.0 µM, hits give high values
Compounds without any hit were thinned out: in the full panel of roughly 79,000, 15% have a hit.
Output spec: scalar in %, unitless text.

Query :: Give the measured growth inhibition of CC(=O)CC(=O)NCc1ccccc1 .
Result :: 25

Query :: Give the measured growth inhibition of COc1ccc(Cc2cc3c(cc2OCC(=O)N2CCOCC2)OCO3)cc1 .
Result :: -4.25

Query :: Give the measured growth inhibition of O=C(CCl)OCCCc1ccccc1 .
Result :: 49.6

====

- Assay overview: NCI Yeast Anticancer Drug Screen. Data for the rad50 strain (AID 155);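 also: 0% = growth of vehicle-only cultures of the same strain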
- Cond: S. cerevisiae rad50 strain growth inhibition; at 50.0 µM; hits give high values
The panel holds about 79,000 compounds, 15% with a hit somewhere; the sample as a whole holds those more often. Calls of active or inactive are those of the source. Rule as the data show it: active = growth inhibition above about 70%; inactive = the rest. Where a SMILES comes first, the peptide text is derived from it. The star is where a group is joined. Boc = CC(C)(C)OC(=O)*
Hi there, I'd appreciate the recorded growth inhibition for every entry that follows.

Query :: Give the measured growth inhibition of CC1CCC(O)(C(C)(C(=O)O)c2ccccc2)CC1 (stereo not given) .
Result :: -19.7% (inactive)

Query :: Give the measured growth inhibition of CCCCCCCCCCCCCCCCCCNC(=O)Nc1ccccc1 .
Result :: 3.1% (inactive)

Query :: Give the measured growth inhibition of COC(=O)C(Cc1c[nH]c2ccccc12)NC(=O)C(Cc1c[nH]c2ccccc12)NC(=O)C(Cc1c[nH]c2ccccc12)NC(=O)OC(C)(C)C (stereo not drawn) (Boc-Trp-Trp-Trp-OMe; configuration not given here) .
Result :: -22.9% (inactive)

Query :: Give the measured growth inhibition of CC(=O)N1C(=O)NC(=O)C1(C)C .
Result :: -7% (inactive)

Query :: Give the measured growth inhibition of Oc1ccc(NCc2ccccc2)cc1 .
Result :: 32.9% (inactive)

Query :: Give the measured growth inhibition of O=S=NCCCl .
Result :: -14.3% (inactive)

Query :: Give the measured growth inhibition of CC(C)CC(NC(=O)OC(C)(C)C)C(=O)NC(Cc1c[nH]c2ccccc12)C(=O)NN (stereo not given) .
Result :: 37.8% (inactive)

Query :: Give the measured growth inhibition of O=C1CC(=O)N(CCc2ccccc2)S(=O)(=O)N1CCc1ccccc1 .
Result :: -8.9% (inactive)

Query :: Give the measured growth inhibition of CN(C)CCNc1ccc2nnn3c4ccccc4c(=O)c1c23 .
Result :: 32.5% (inactive)

Query :: Give the measured growth inhibition of CC(C)C/C(=N\NC(N)=O)C1=CCCCC1 .
Result :: 10.8% (inactive)

Query :: Give the measured growth inhibition of Oc1cc2cc(-c3ccccc3)[nH]c2c2ccccc12 .
Result :: -11.1% (inactive)

Query :: Give the measured growth inhibition of C=COC(=O)N1CCCCC1 .
Result :: -5.75% (inactive)

Query :: Give the measured growth inhibition of CC(=O)Nc1ccc(/C=N/NC(N)=O)cc1 .
Result :: 16.4% (inactive)

Query :: Give the measured growth inhibition of O=C(Nc1cccc2ccccc12)OC1CCCC1 .
Result :: 1.2% (inactive)

Query :: Give the measured growth inhibition of Cc1nc([N+](=O)[O-])cn1CC(=N)N .
Result :: -23% (inactive)

Query :: Give the measured growth inhibition of CCCCCCCCCCCCCCCCCC(=O)OCC1CO1 (stereo not given) .
Result :: 23.2% (inactive)

Query :: Give the measured growth inhibition of Cc1cn(C2CC(O)C(CO)O2)c(=O)nc1NC1CC1 (stereo not given) .
Result :: -7% (inactive)

Query :: Give the measured growth inhibition of O=c1/c(=C/c2ccc3c(c2)OCO3)sc2nnc(-c3ccco3)n12 .
Result :: 1.85% (inactive)

Query :: Give the measured growth inhibition of COC1C(=O)c2ccccc2N1C(C)=O (stereo not given) .
Result :: 7.85% (inactive)

Query :: Give the measured growth inhibition of COc1ccc2c(c1)C1c3ccccc3CCN1CCC2 (stereo not given) .
Result :: 20.8% (inactive)
